Reported koff by item:
Target: T1, human MYCT1 (hMYCT1) (human, UniProt Q8N699 1-235, limits assumed)
T1 construct: also called MYC Target 1
T1 sequence: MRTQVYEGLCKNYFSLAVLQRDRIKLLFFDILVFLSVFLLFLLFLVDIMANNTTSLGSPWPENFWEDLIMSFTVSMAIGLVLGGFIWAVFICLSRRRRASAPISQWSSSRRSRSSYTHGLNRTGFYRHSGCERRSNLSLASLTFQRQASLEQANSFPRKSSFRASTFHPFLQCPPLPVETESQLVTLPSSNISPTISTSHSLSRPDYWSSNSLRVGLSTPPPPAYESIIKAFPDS
Assay Info: SPR full kinetics, multicycle, antibody captured via anti-human Fc IgG, MYCT1 0.625-10 nM as analyte, 1:1 binding model

Worked examples follow.
* 11B6-z12-p3-uIgG1K (antibody, V domains shown) VH: EVQLVESGGGLVKPGGSLRLSCAASGFTFSDFGIHWVRQAPGKGLEWVGYISSGSRTIHYADTVKGRFTISRDNAKNSLYLQMNSLRAEDTAIYYCARRDWDPEWLAYWGQGTLVTVSS VL: DVVMTQSPLSLPVTPGEPASISCRSSLSLVHSNAHTYLHWYLQKPGQSPKLLIYKVSNRFSGVPDRFSGSGSGTDFTLKIRRVEAEDVGVYFCSQSTHVPFTFGQGTKLEIK | 0.00786 s⁻¹
* 11B6-z16-p3-uIgG1K (antibody, V domains shown, also called hzATN001; ATN001) VH: EVQLVESGGGLVKPGGSLRLSCAASGFTFSDFGIHWVRQAPGKGLEWVGYISSGSRTIHYADTVKGRFTISRDNAKNSLYLQMNSLRAEDTAVYYCARRDWDPEWLAYWGQGTLVTVSS VL: DIVMTQSPLSLPVTPGEPASISCRSSLSLVHSNAHTYLHWYLQKPGQSPKLLIYKVSNRFSGVPDRFSGSGSGTDFTLKISRVEAEDVGVYFCSQSTHVPFTFGQGTKLEIK | 0.00841 s⁻¹
* 11B6-z10-p3-uIgG1K (antibody, V domains shown) VH: EVQLVESGGGLVKPGGSLRLSCAASGFTFSDFGIHWVRQAPGKGLEWVGYISSGSRTIHYADTVKGRFTISRDNAKNSLYLQMNSLRAEDTAVYYCARRDWDPEWLAYWGQGTLVTVSS VL: DVVMTQSPLSLPVTPGEPASISCRSSLSLVHSNAHTYLHWYLQKPGQSPQLLIYKVSNRFSGVPDRFSGSGSGTDFTLKISRVEAEDVGVYFCSQSTHVPFTFGQGTKLEIK | 0.0122 s⁻¹

--- query ---
Given the entry 11B6 parent antibody (antibody, V domains shown, Mouse parental variable domains; also called parent antibody (11B6); 11B6 clone) VH: EVQLVESGGGLVKPGGSLKLSCAASGFTFSDFGIHWVRQAPEKGLEWVGYISSGSRTIHYADTVKGRFTISRDNAKNTLFLQMTNLRSEDTAIYYCARRDWDPEWLAYWGQGTLVTISA VL: DVVMTQAPLSLPVSLGDQASISCRSSLSLVHSNGHTYLHWYLQKPGQSPKLLIYKVSNRFSGVPDRFSGSGSGTDFTLKIRRVEAEDLGVYFCSQSTHVPFTFGSGTKLEIK , report its measured koff.
0.00411 s⁻¹
